Assay: reducers of endogenous Her2 protein level, primary screen, SKBR3 breast tumor cells, AlphaScreen, ATP viability (AID 461);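 also: percent of carrier control wells set as 100% viability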
Conditions: 18-24 h, measured here: SKBR3 viability, ATP luminescence, at 10 µM
reported_property: viability

Example cases with answers are listed next.
- molecule: "COc1cc(C2c3c(n[nH]c3C)C(=O)N2c2ccc(Br)cc2)ccc1O (stereo unspecified)"
  viability: "95%"
- molecule: "CCOc1ccc2ccccc2c1C(=O)N1CCN(c2ccccc2)CC1"
  viability: "95%"
- molecule: "CCCCN(c1ccccc1)S(=O)(=O)c1ccc2c(c1)CCN2C(=O)CCC(=O)O"
  viability: "116%"
- molecule: "COC(=O)c1oc2ccc(Br)cc2c1NC(=O)CN1CCN(C)CC1"
  viability: "92.5%"
- molecule: "COc1ccc(Cn2nnnc2C(c2ccccc2OC)N2CCC(C(N)=O)CC2)cc1 (stereo unspecified)"
  viability: "100%"
- molecule: "C=CCc1cc(C(=O)N2CCCCC2)ccc1O"
  viability: "104%"

Inquiry: What does the record list as viability for CCOc1ccc(C2C(C#N)=C(N)Oc3cc(C)n(CCN(C)C)c(=O)c32)cc1OCC (stereo unspecified) ?
Reply text: 84%

Inquiry: Returns the measured viability for the input molecule. Input: Cc1n[nH]c(C)c1S(=O)(=O)N1CCN(c2ccccn2)CC1
Reply text: 99.5%

Inquiry: Quick one: viability for COc1cc(NC2=CC(=O)CC(C)(C)C2)cc(OC)c1 ?
Reply text: 77%

Inquiry: viability for Cn1cnc2c(N3CCCCC3)nccc21 ?
Reply text: 116%

Inquiry: So what's the measured viability for this one? CC(NS(=O)(=O)c1ccc(F)cc1)C(c1cccs1)N1CCN(C)CC1 (stereo unspecified)
Reply text: 118%

Inquiry: Name the recorded viability for CC(=O)Nc1ccc(OC(=O)c2cccs2)cc1 .
Reply text: 101%

Inquiry: Could you tell me which viability is on file for CCn1c(SCC(=O)c2ccc(OC)cc2)nnc1C(C)NC(=O)c1ccc(OC)cc1 (stereo unspecified) ?
Reply text: 93%

Inquiry: Requested field: viability. Item: O=C1CN(Cc2ccccc2)C(=NCc2ccco2)S1
Reply text: 97%

Inquiry: Data request, read-out viability, for CCOc1ccc(N(C(C)=O)C2C=CS(=O)(=O)C2)cc1 (stereo unspecified)
Reply text: 91.5%

Inquiry: Find the recorded viability belonging to Cn1cc(CN2CCc3ccccc3C2)c2ccccc21 and report it.
Reply text: 80.5%

Inquiry: What value of viability has been reported for the following molecule? COc1cc(-c2nnc(SCC(=O)c3ccc(C)cc3)o2)cc(OC)c1OC
Reply text: 90%

Inquiry: Find the recorded viability belonging to Cc1cc(C)nc(N2CCC(C(=O)NCc3cccc(C(F)(F)F)c3)CC2)n1 and report it.
Reply text: 104%
